SYSTEM_TESTED: glucagon receptor (UniProt P47871 26-477, limits assumed)
Sequence (P47871 26-477 limits assumed): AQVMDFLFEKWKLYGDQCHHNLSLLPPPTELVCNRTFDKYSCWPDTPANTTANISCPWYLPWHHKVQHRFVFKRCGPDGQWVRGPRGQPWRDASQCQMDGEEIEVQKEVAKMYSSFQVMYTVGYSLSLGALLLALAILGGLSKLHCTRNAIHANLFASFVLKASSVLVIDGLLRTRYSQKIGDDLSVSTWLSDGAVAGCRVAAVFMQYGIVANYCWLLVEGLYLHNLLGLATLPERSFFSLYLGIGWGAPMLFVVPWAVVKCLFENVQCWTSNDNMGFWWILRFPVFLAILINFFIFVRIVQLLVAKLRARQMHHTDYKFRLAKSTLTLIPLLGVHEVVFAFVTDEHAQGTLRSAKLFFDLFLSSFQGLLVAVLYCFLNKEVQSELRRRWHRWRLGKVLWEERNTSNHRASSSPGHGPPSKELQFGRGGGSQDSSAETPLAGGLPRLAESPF
ASSAY_SUMMARY: cell-based or functional assay
Bridges are numbered along the chain shown (N, C = ends). Primed or numbered codes have the meaning given here. Where no end group is shown, it is not given here. Side-chain parts run from the residue outwards. [ ]: non-standard residue; d: D form. maleimide = maleimide group on activated PEG, it reacts with the Cys thiol (Michael addition) to give a thioether linkage; PEG 40 kDa″ = polyethylene glycol of 40 kDa covalently attached to the side chain; PEG 40 kDa = PEG (40 kDa) covalently attached to Cys; Aib = CC(C)(N)C(=O)O
REPORTED_METRIC: EC50 (nM)
// units = nM; emit number, no label

See these solved cases before continuing.
                                     binder  reported_metric  value_measured
0  Y[Aib]QGTFTSEYSKYLDEQAAKEFVNWLLAGGPSSGAPPPSC-NH2 (lactam 9-12, 16-20; not fully specified) [mt-209]             EC50            4.66
1  Y[Aib]QGTFTSDYSIYLDEQAAKEFVC(PEG 40 kDa)WLLAGGPSSGAPPPS-NH2 (lactam 16-20) [mt-175]             EC50            2.42

Look up EC50 of Y[Aib]EGTFTSDYSIYLDEQAAKEFVNWLLAGGPSSGAPPPSC([maleimide-PEG 40 kDa])-NH2 (lactam 16-20) [mt-178] and report it.
8.25

Look up EC50 of Y[Aib]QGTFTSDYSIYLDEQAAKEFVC(PEG 40 kDa)WLLAG-NH2 (lactam 16-20) [mt-172] and report it.
9.16

Look up EC50 of Y[Aib]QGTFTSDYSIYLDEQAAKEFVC(PEG 40 kDa″)WLMNG-NH2 (lactam 16-20) [mt-186] and report it.
1.58
